Biological target: T1, VPAC1 receptor (UniProt P32241 31-457, limits assumed)
T1 sequence (looked up): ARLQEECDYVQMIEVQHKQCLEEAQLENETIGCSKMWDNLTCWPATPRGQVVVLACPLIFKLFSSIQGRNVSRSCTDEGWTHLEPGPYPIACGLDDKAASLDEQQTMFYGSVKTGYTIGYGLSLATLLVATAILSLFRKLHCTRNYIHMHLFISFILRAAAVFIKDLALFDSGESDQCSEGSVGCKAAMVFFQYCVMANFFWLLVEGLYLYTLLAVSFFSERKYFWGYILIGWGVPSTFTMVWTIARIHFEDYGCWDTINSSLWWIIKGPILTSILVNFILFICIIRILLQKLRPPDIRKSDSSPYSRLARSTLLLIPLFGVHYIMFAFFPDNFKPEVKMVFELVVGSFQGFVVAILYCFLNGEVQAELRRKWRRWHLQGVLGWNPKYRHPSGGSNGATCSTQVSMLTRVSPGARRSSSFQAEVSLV
Assay: cell-based or functional assay
value_kind: EC50 (VPAC1R), cAMP inducing effect (nM)

Worked set:
>>> observed_result("HAXGIFTXSYSRYRKQLAVKKYLAAVL (N-terminal acetyl (Ac-); Tz (aspartic acid with carboxyl group replaced by tetrazole) at positions 3 and 8; C-terminal amide (NH2)) [Peptide 14]")
0.099
>>> observed_result("HSXGIFTXSYSRYRKQAAVKKYLAAVL (N-terminal acetyl (Ac-); Tz (aspartic acid with carboxyl group replaced by tetrazole) at positions 3 and 8; C-terminal amide (NH2)) [Peptide 18]")
0.033
>>> observed_result("HSDGIFTXSYSRYRKQMAVKKYLAAVL (Tz (aspartic acid with carboxyl group replaced by tetrazole) at position 8; C-terminal amide (NH2)) [Peptide 4]")
0.053
>>> observed_result("HSXGIFTXSYSRYRKQLAVKKYLAAVA (N-terminal acetyl (Ac-); Tz (aspartic acid with carboxyl group replaced by tetrazole) at positions 3 and 8; C-terminal amide (NH2)) [Peptide 20]")
0.04
>>> observed_result("HSXGIFTXSYSRYRKXLAVKKYLAAVL (N-terminal acetyl (Ac-); Tz (aspartic acid with carboxyl group replaced by tetrazole) at positions 3 and 8; egTz (glutamine with amide replaced by tetrazole) at position 16; C-terminal amide (NH2)) [Peptide 13]")
0.072

[1] HSXGIFTXSYSRYRKQXAVKKYLAAVL (N-terminal mesyl (Ms-); Tz (aspartic acid with carboxyl group replaced by tetrazole) at positions 3 and 8; norleucine at position 17; C-terminal amide (NH2)) [Peptide 11]
[2] HSXGIFTXSYSRYRKQLAVKKYLAAVL (N-terminal mesyl (Ms-); Tz (aspartic acid with carboxyl group replaced by tetrazole) at positions 3 and 8; C-terminal amide (NH2)) [Peptide 12]
Lowest EC50 (VPAC1R), cAMP inducing effect? choose 1 or 2 Use the label to indicate which entry you chose. 2
(2: 0.087 nM, 1: 0.19 nM)
